Reference source: PubChem BioAssay

target: Nuclear receptor subfamily 5 group A member 2 (Homo sapiens); assay: LRH-1 (NR5A2) inverse agonists, retest, confirmation, cell-based, luminescence (AID 651613); details: cell-based LRH-1 luciferase reporter, inverse agonism; at 3.6 µM; stronger effect = higher value;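 note: HEK293T cells co-transfected with LRH-1 and StAR promoter luciferase reporter; 0% = vehicle wells and 100% = parental cells lacking receptor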

compound	target under test	inhibition [%]
O=C(Nc1nc(-c2ccccn2)cs1)c1ccc([N+](=O)[O-])o1	Nuclear receptor subfamily 5 group A member 2 (Homo sapiens)	69.5
CC(C)C(=O)NC(c1ccc(Cl)cc1Cl)c1ccc2cccnc2c1O (configuration not stated)	Nuclear receptor subfamily 5 group A member 2 (Homo sapiens)	35.2
Cc1c(F)cccc1NS(=O)(=O)c1ccc(N2CCCC2=O)cc1	Nuclear receptor subfamily 5 group A member 2 (Homo sapiens)	56
Clc1ccc(-n2ncc3c(N4CCCCCC4)ncnc32)cc1	Nuclear receptor subfamily 5 group A member 2 (Homo sapiens)	24.8
Cc1ccc(C(=O)Nc2sc3c(c2C(=O)O)CCC(C)C3)o1 (configuration not stated)	Nuclear receptor subfamily 5 group A member 2 (Homo sapiens)	89.5
Cc1cccc(OCC(=O)Nc2ccncc2)c1C	Nuclear receptor subfamily 5 group A member 2 (Homo sapiens)	60
Cn1cccc1C(=O)OCC(=O)NCCCc1ccccc1	Nuclear receptor subfamily 5 group A member 2 (Homo sapiens)	54
